Target: full-length beta-Catenin (Uniprot ID P35222) (Homo sapiens)
Construct: 10 nM full-length beta-Catenin (Uniprot ID P35222)
Test: Fluorescence polarization IC50 (beta-catenin / 5FAM-TCF4 10-53 competition)
Format: binding
Details: fluorescence polarization; read-out: beta-Catenin FP IC50
OBSERVABLE: pIC50
Here pIC50 is given on a logarithmic scale as minus log10 of the concentration in mol/L.

INSERT INTO results (compound, recorded_number) VALUES
  ('CC(=O)N1CCC[C@]12CC=CCCCC1(CCCC=CCCCOC(=O)N3CC[C@@](C(=O)N[C@@H](Cc4ccsc4)C(=O)N[C@@H](Cc4ccc(Cl)c(Cl)c4)C(=O)N[C@@H](CCC(N)=O)C(N)=O)(C3)NC(=O)[C@H](CC(N)=O)NC(=O)[C@H](Cc3ccccc3)NC(=O)[C@H](C)NC(=O)[C@H](C)NC(=O)[C@H](CC(=O)O)NC(=O)[C@H](CC(=O)O)NC1=O)NC(=O)[C@H](CC(C)(C)C)NC(=O)[C@H](CC(=O)O)NC2=O (some centres unmarked)', 8.30),
  ('CC(=O)N1CCC[C@]12CC=CCCCC1(CCCC=CCCCOC(=O)N3CC[C@@](C(=O)N[C@@H](Cc4ccccc4Cl)C(=O)N[C@@H](Cc4csc5ccccc45)C(=O)N[C@@H](CCO)C(N)=O)(C3)NC(=O)[C@H](CO)NC(=O)[C@H](Cc3ccccc3)NC(=O)[C@H](C)NC(=O)[C@H](C)NC(=O)[C@H](CC(=O)O)NC(=O)[C@H](CC(=O)O)NC1=O)NC(=O)[C@H](CC1CCCCC1)NC(=O)[C@H](CC(=O)O)NC2=O (some centres unmarked)', 8.10),
  ('CC(=O)N1CCC[C@]12CC=CCCCC1(CCCC=CCCCOC(=O)N3CC[C@@](C(=O)N[C@@H](Cc4ccccc4C(F)(F)F)C(=O)N[C@@H](Cc4c(C(F)(F)F)[nH]c5ccccc45)C(=O)N[C@@H](C)C(N)=O)(C3)NC(=O)[C@H](CC(C)C)NC(=O)[C@H](Cc3ccccc3)NC(=O)[C@H](C)NC(=O)[C@H](CCC(N)=O)NC(=O)[C@H](Cc3cccc(C(=O)O)c3)NC(=O)[C@H](CC(=O)O)NC1=O)NC(=O)[C@H](CC(C)(C)C)NC(=O)[C@H](CC(=O)O)NC2=O (some centres unmarked)', 5.32),
  ('CC(C)C[C@H](NC(=O)[C@]12CCN(C1)C(=O)OCCCCCCCCC1(CCCCCCCCC(=O)N3CCC[C@@]3(C)C(=O)N[C@@H](CC(=O)O)C(=O)N1)C(=O)N[C@@H](C)C(=O)N[C@@H](CC(=O)O)C(=O)N[C@@H](CC(=O)O)C(=O)N[C@@H](C)C(=O)N[C@@H](C)C(=O)N[C@@H](Cc1ccccc1)C(=O)N2)C(=O)N[C@@H](Cc1ccsc1)C(=O)N[C@@H](Cc1csc2ccccc12)C(=O)N[C@@H](CCC(N)=O)C(N)=O (some centres unmarked)', 6.03);

Could you now look at the following compound, please?
Entry CC(=O)N1CCC[C@]12CC=CCCCC1(CCCC=CCCCOC(=O)N3CC[C@@](C(=O)N[C@@H](Cc4ccsc4)C(=O)N[C@@H](Cc4csc5ccccc45)C(=O)N[C@@H](CCC(N)=O)C(=O)N[C@H](CO)CC(C)C)(C3)NC(=O)[C@H](CC(C)C)NC(=O)[C@H](Cc3ccccc3)NC(=O)[C@H](C)NC(=O)[C@H](C)NC(=O)[C@H](CN(CC(=O)O)CC(F)(F)F)NC(=O)[C@H](CC(=O)O)NC1=O)NC(=O)[C@H](CC(C)(C)C)NC(=O)[C@H](CC(=O)O)NC2=O (some centres unmarked) : pIC50 on full-length beta-Catenin (Uniprot ID P35222) (Homo sapiens) = 7.39

---

Biological target: full-length beta-Catenin (Uniprot ID P35222) (Homo sapiens)
Construct: 10 nM full-length beta-Catenin (Uniprot ID P35222)
Sequence (P35222 1-781): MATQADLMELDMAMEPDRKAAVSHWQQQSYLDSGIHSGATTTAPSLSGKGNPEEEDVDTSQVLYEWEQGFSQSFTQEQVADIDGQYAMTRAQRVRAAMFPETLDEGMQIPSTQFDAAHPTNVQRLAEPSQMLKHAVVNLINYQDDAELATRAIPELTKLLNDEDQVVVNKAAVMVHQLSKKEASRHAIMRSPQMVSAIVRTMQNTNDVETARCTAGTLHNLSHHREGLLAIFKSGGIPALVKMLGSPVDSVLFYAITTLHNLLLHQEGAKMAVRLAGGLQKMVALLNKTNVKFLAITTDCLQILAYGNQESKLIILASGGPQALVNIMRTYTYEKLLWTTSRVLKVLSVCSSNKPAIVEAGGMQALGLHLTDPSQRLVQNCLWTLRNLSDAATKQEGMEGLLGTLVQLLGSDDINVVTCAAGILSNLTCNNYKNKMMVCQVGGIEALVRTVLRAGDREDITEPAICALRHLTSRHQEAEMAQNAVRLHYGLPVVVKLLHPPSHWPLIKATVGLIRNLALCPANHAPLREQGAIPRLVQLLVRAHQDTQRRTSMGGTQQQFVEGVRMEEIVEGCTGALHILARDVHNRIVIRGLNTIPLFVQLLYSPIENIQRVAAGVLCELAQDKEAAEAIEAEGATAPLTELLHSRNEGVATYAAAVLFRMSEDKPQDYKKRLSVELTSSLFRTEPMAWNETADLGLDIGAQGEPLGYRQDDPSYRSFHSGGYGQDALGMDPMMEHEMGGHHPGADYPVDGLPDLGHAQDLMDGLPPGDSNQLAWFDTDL
Experiment: Fluorescence polarization IC50 (beta-catenin / 5FAM-TCF4 10-53 competition)
Assay type: binding
Conditions: read-out: beta-Catenin FP IC50
OBSERVABLE: IC50 (nM)
Please reply with the bare figure in nM and do not write the unit itself.

INSERT INTO measurements (molecule, recorded_number) VALUES
  ('CC(=O)N1CCC[C@]12CC=CCCCC1(CCCC=CCCCOC(=O)N3CC[C@@](C(=O)N[C@@H](Cc4ccccc4Cl)C(=O)N[C@@H](Cc4csc5ccccc45)C(=O)N[C@@H](CO)C(N)=O)(C3)NC(=O)[C@H]([C@@H](C)O)NC(=O)[C@H](Cc3ccccc3)NC(=O)[C@H](C)NC(=O)[C@H](C)NC(=O)[C@H](CC(=O)O)NC(=O)[C@H](CC(=O)O)NC1=O)NC(=O)[C@H](CC1CCCCC1)NC(=O)[C@H](CC(=O)O)NC2=O (some centres unmarked)', 5),
  ('CC(=O)N1CCC[C@]12CC=CCCCC1(CCCC=CCCCOC(=O)N3CC[C@@](C(=O)N[C@@H](Cc4ccsc4)C(=O)N[C@@H](Cc4csc5ccccc45)C(=O)N[C@@H](CO)C(N)=O)(C3)NC(=O)[C@H](CC(C)C)NC(=O)[C@H](Cc3ccccc3)NC(=O)[C@H](C)NC(=O)[C@H](C)NC(=O)[C@H](CN(CC(=O)O)CC(F)(F)F)NC(=O)[C@H](CC(=O)O)NC1=O)NC(=O)[C@H](CC(C)(C)C)NC(=O)[C@H](CC(=O)O)NC2=O (some centres unmarked) [I-960]', 336),
  ('CC(=O)N1CCC[C@]12CC=CCCCC1(CCCC=CCCCCCC[C@@](C)(C(=O)N[C@@H](Cc3ccccc3Cl)C(=O)N[C@@H](Cc3csc4ccccc34)C(=O)N[C@@H](CCO)C(N)=O)NC(=O)[C@H](CO)NC(=O)[C@H](Cc3ccccc3)NC(=O)[C@H](C)NC(=O)[C@H](C)NC(=O)[C@H](CN(CC(=O)O)CC(F)(F)F)NC(=O)[C@H](CC(=O)O)NC1=O)NC(=O)[C@H](CC(C)(C)C)NC(=O)[C@H](CC(=O)O)NC2=O (some centres unmarked) [I-998]', 127),
  ('COCCOCCOCCOCCOCCOCCC(=O)NCCCC[C@@H]1NC(=O)[C@H](C)NC(=O)[C@H](CC(=O)O)NC(=O)[C@H](CC(=O)O)NC(=O)C2(CCCC=CCCCOC(=O)N3CC[C@@](C(=O)N[C@@H](Cc4ccsc4)C(=O)N[C@@H](Cc4csc5ccccc45)C(=O)N[C@@H](CCC(N)=O)C(N)=O)(C3)NC(=O)[C@H](CC(N)=O)NC(=O)[C@H](Cc3ccccc3)NC1=O)CCCC=CC[C@]1(CCCN1C(C)=O)C(=O)N[C@@H](CC(=O)O)C(=O)N[C@@H](CC(C)(C)C)C(=O)N2 (some centres unmarked)', 14);

Could you now look at the following molecule, please?
Record CC(=O)N1CCC[C@]12CC=CCCCC1(CCCC=CCCCOC(=O)N3CC[C@@](C(=O)N[C@@H](Cc4ccsc4)C(=O)N[C@@H](Cc4csc5ccccc45)C(=O)N[C@@H](CO)C(N)=O)(C3)NC(=O)[C@H](CC(N)=O)NC(=O)[C@H](Cc3ccccc3)NC(=O)[C@H](C)NC(=O)[C@H](C)NC(=O)[C@H](CC(=O)O)NC(=O)[C@H](CC(=O)O)NC1=O)NC(=O)[C@H](CC(C)(C)C)NC(=O)[C@H](CC(=O)O)NC2=O (some centres unmarked) . Reported IC50: 5
